These data points were gathered from ChEMBL document CHEMBL1201862.

Target: RNA-binding protein pos-1 (Caenorhabditis elegans, UniProt G5EF15)
Sequence (G5EF15 whole entry, the tested form may be a part): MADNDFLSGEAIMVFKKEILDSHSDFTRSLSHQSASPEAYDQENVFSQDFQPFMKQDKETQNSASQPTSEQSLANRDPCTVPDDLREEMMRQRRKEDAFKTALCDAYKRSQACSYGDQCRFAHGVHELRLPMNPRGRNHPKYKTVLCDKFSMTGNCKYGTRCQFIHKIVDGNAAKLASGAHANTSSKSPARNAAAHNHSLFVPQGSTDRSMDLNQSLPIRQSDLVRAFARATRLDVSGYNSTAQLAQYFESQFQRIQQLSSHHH
Test: inhibitors of POS-1/mex-3 RNA binding, dose response, biochemical, fluorescence polarization (AID 1964);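 also: purified POS-1 fused to maltose binding protein made in E. coli; potency of compounds blocking POS-1 binding to fluorescent RNA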
Calls of active or inactive are those of the source.
The entries below come with measured EC50 values attached.

{"columns": ["compound", "EC50"],
 "data": [
  ["Cc1sc(-c2ccccn2)nc1OC(=O)c1cccc(Cl)c1Cl", "> 300 µM (not active)"],
  ["Nc1c(C(=O)Nc2nc3ccccc3s2)sc2nc(-c3cccs3)ccc12", "19.2 µM (inconclusive)"],
  ["Cc1ccccc1NC(=O)CN1C(=O)S/C(=C\\c2cccn2-c2cccc(C(=O)O)c2)C1=O", "> 300 µM (not active)"],
  ["CC1=NOC(=O)/C1=C\\c1ccc2c(c1)OCO2", "> 300 µM (not active)"],
  ["Cc1cccc(C)c1NC(=O)CN1C(=O)S/C(=C\\c2cccn2-c2cccc(C(=O)O)c2)C1=O", "> 300 µM (not active)"],
  ["COCCN1CCC(CNCc2c(C(=O)N3CCCCC3)nc3c(C)cccn23)C1 (stereo not drawn)", "> 300 µM (not active)"],
  ["Cc1n[nH]c(S/C(=C/c2ccc(-c3ccc(Cl)cc3)o2)C(=O)O)n1", "25.4 µM (active)"],
  ["O=C(COC(=O)C1CCCC1)Nc1ncc(Cl)cc1Cl", "> 300 µM (not active)"]
]}

----------
Below are compounds with their IC50 as measured on Glyceraldehyde-3-phosphate dehydrogenase (Homo sapiens).
Sequence (P04406 whole entry): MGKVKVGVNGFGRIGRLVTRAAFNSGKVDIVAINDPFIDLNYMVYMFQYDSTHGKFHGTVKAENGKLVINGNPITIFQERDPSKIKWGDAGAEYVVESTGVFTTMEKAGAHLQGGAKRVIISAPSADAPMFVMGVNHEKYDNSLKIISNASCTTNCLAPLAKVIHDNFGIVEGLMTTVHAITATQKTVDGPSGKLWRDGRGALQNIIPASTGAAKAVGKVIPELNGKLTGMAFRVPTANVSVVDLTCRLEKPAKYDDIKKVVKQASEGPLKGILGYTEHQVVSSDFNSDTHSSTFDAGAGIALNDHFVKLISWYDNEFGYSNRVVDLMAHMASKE
measured.metric: IC50

{"columns": ["compound", "reported"],
 "data": [
  ["O=C1C(Cl)=C(N2CCN(c3ccccc3)CC2)C(=O)N1c1ccc(Cl)nc1", "> 50 µM (inconclusive)"],
  ["CN1CCN(C2=C(Cl)C(=O)N(c3ccc(Cl)c(Cl)c3)C2=O)CC1", "> 100 µM (not active)"],
  ["CC1CN(C2=C(Cl)C(=O)N(c3ccc(Cl)c(Cl)c3)C2=O)CCN1c1ccccc1 (stereo not drawn)", "> 100 µM (not active)"],
  ["Cc1nc(-c2cccnc2)c[nH]1", "> 100 µM (not active)"],
  ["CC(C)Cc1nc(N)nn1-c1ccccc1", "> 100 µM (not active)"],
  ["COCCCNc1nc(=O)n(-c2ccc(C)cc2)c(=O)[nH]1", "> 100 µM (not active)"],
  ["Cc1ccc(-c2ccc(C(=O)O)[nH]2)cc1", "> 100 µM (not active)"],
  ["CN(C)C1=C(Cl)C(=O)N(c2ccc(Cl)nc2)C1=O", "> 50 µM (inconclusive)"]
]}

----------
Biological target: Carboxy-terminal domain RNA polymerase II polypeptide A small phosphatase 1 (Homo sapiens)
Sequence (Q9GZU7 whole entry, the tested form may be a part): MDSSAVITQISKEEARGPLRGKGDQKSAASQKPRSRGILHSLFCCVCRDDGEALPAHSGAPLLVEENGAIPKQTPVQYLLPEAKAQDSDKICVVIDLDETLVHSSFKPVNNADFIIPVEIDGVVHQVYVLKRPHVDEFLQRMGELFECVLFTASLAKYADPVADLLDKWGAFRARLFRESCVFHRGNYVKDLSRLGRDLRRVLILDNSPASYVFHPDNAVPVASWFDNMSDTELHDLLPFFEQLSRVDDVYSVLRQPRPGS
Experiment: inhibitors of CTDSP1, concentration-response testing, biochemical assay, absorbance-based, actives from ultra-high-throughput screening (AID 540297)
Format: functional
Activity calls are given as the source filed them.

{"columns": ["compound", "test.target", "IC50"],
 "data": [
  ["COc1cccc(C(=O)c2cn(CC(=O)NCc3ccco3)c3nc(C)ccc3c2=O)c1", "Carboxy-terminal domain RNA polymerase II polypeptide A small phosphatase 1 (Homo sapiens)", "11.2 µM (active)"],
  ["Cc1ccccc1NC(=O)CN1C(=O)S/C(=C\\c2cccn2-c2cccc(C(=O)O)c2)C1=O", "Carboxy-terminal domain RNA polymerase II polypeptide A small phosphatase 1 (Homo sapiens)", "4.23 µM (active)"],
  ["COC(=O)C1=C(COc2ccccc2)NC(=O)NC1c1ccc2ccccc2c1 (configuration not stated)", "Carboxy-terminal domain RNA polymerase II polypeptide A small phosphatase 1 (Homo sapiens)", "13.8 µM (active)"],
  ["Cc1cccc(C)c1NC(=O)CN1C(=O)S/C(=C\\c2cccn2-c2cccc(C(=O)O)c2)C1=O", "Carboxy-terminal domain RNA polymerase II polypeptide A small phosphatase 1 (Homo sapiens)", "6.71 µM (active)"],
  ["O=C1NN(c2ccccc2)C(=O)/C1=C/c1ccc(-c2ccc(C(=O)O)cc2)o1", "Carboxy-terminal domain RNA polymerase II polypeptide A small phosphatase 1 (Homo sapiens)", "4.57 µM (active)"],
  ["NN1C(=O)/C(=C2/Sc3ccccc3N2CCCS(=O)(=O)O)SC1=S", "Carboxy-terminal domain RNA polymerase II polypeptide A small phosphatase 1 (Homo sapiens)", "8.53 µM (active)"],
  ["CN(CC(=O)Nc1ccc(F)cc1)C(=O)c1cc(-c2ccco2)nc2ccccc12", "Carboxy-terminal domain RNA polymerase II polypeptide A small phosphatase 1 (Homo sapiens)", "5.11 µM (active)"],
  ["CCCCN(CCCC)S(=O)(=O)c1ccc(NC(=O)Cc2cccs2)cc1", "Carboxy-terminal domain RNA polymerase II polypeptide A small phosphatase 1 (Homo sapiens)", "7.14 µM (active)"],
  ["O=C(Nc1nc2ccsc2c(=O)s1)c1ccc(F)cc1", "Carboxy-terminal domain RNA polymerase II polypeptide A small phosphatase 1 (Homo sapiens)", "5.11 µM (active)"],
  ["Cc1nnc(SCC(=O)NC(=O)NCc2ccco2)n1Cc1ccccc1", "Carboxy-terminal domain RNA polymerase II polypeptide A small phosphatase 1 (Homo sapiens)", "5.15 µM (active)"],
  ["CCc1ccc(OCc2cccc(C(=O)N/N=C\\c3cnn(C)c3C)c2)cc1", "Carboxy-terminal domain RNA polymerase II polypeptide A small phosphatase 1 (Homo sapiens)", "9.07 µM (active)"],
  ["O=C(N/N=C/c1ccccn1)c1cc(-c2ccc(Br)s2)n[nH]1", "Carboxy-terminal domain RNA polymerase II polypeptide A small phosphatase 1 (Homo sapiens)", "8.5 µM (active)"]
]}

----------
Target: Adenosylmethionine-8-amino-7-oxononanoate aminotransferase (Mycobacterium tuberculosis)
Sequence (P9WQ81 whole entry): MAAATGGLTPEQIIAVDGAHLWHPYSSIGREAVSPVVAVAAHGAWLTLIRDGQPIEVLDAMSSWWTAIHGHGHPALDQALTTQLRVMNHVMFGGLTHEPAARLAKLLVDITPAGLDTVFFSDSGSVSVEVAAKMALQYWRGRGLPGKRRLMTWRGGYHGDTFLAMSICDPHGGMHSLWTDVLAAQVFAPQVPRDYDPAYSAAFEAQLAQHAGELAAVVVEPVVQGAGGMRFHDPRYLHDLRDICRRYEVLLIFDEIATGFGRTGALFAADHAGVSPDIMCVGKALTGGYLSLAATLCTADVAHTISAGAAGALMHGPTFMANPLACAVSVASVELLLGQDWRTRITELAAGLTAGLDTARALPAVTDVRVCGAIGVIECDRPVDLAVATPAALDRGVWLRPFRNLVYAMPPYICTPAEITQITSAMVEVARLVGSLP
Experiment: Mycobacterium tuberculosis BioA enzyme inhibitor Measured in Biochemical System Using Plate Reader - 2163-02_Inhibitor_Dose_CherryPick_Activity.
Assay type: functional, Mycobacterium tuberculosis UT205
Calls of active or inactive are those of the source.

{"columns": ["smiles.text", "AC50"],
 "data": [
  ["O=C(c1ccncc1)N1CC[C@H]2[C@H](CO)Nc3ccc(Br)cc3[C@H]21", "18.5 µM (active)"],
  ["CN1c2ccc(-c3ccccc3)cc2[C@H]2[C@H](CCN2C(=O)c2ccccc2F)[C@H]1CO", "0.183 µM (active)"],
  ["CC(=O)c1ccc(N2CCN(S(=O)(=O)c3c(C(=O)N4CCCC4)c(C)n(C)c3C)CC2)cc1", "11.6 µM (active)"],
  ["CCOC(=O)CNC(=O)c1sc2ncnc(N3CCc4ccccc4C3)c2c1C", "4.06 µM (active)"]
]}

----------
Tested on: Streptococcus sp. 'group A'
Experiment: growth inhibition of control SK(-) GAS strain, dose response, counter-screen for streptokinase expression inhibitor project, luminescence, kanamycin, BacTiterGlo, confirmation (AID 1900)
Type: functional, organism-based
Calls of active or inactive are those of the source.

{"columns": ["compound", "EC50"],
 "data": [
  ["Cc1ccc(C)c(S(=O)(=O)N2CCN(Cc3ccc(O)c4ncccc34)CC2)c1", "6.87 µM (active)"],
  ["C=C(C)COc1ccc(-c2nc(N)ncc2Oc2ccc(OC)cc2)c(O)c1", "47.6 µM (active)"],
  ["Cc1cc(SCC(=O)c2ccc(O)c(O)c2)n2nc(C)c(-c3ccccc3)c2n1", "7.32 µM (active)"],
  ["COc1ccc(Cc2nn3c(O)cc(C(C)C)nc3c2-c2ccccc2)cc1", "1.78 µM (active)"],
  ["COc1cccc(CC(=O)OCC(=O)Nc2nnc(-c3ccccc3)o2)c1", "7.82 µM (active)"],
  ["C[C@]12CCC(O)CC1CCC1C2CC[C@]2(C)C(c3cc(C(F)(F)F)[nH]n3)CCC12 (some centres not stated)", "1.17 µM (active)"],
  ["COc1cc(NC(=O)c2cc3nc(-c4ccccc4)cc(-c4ccccc4)n3n2)cc(OC)c1OC", "11.7 µM (active)"]
]}

----------
Target: Cytochrome P450 3A4 (Homo sapiens);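 also: CYP3A4 tested as one member of a cytochrome P450 panel screen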
Sequence (P08684 whole entry): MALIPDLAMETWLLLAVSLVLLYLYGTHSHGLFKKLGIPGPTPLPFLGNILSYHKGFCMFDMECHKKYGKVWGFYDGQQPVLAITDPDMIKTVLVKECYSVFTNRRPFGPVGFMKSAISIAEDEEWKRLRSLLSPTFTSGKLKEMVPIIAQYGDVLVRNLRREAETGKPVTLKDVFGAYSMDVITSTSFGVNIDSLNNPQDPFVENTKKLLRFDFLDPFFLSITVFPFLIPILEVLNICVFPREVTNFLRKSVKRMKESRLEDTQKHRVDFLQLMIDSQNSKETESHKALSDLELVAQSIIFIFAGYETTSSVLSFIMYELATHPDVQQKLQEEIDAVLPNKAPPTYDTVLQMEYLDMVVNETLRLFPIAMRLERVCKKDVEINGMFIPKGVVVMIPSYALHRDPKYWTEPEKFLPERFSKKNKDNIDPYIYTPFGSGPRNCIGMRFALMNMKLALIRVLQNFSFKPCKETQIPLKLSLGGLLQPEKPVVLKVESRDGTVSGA
measured.metric: AC50

{"columns": ["compound", "measured.metric", "reported"],
 "data": [
  ["CCCC(=O)Nc1nc2n(n1)C(c1ccccc1)CC(=O)N2 (stereo not drawn)", "AC50", "inconclusive"],
  ["CCN1CCCC1CNC(=O)C(=O)Nc1ccc(OC)cc1 (stereo not drawn)", "AC50", "inconclusive"],
  ["CCC(CC)C(=O)c1c[nH]c(C(=O)NCCCN2CCOCC2)c1", "AC50", "inconclusive"]
]}
